# Tested on: S. cerevisiae Burl-1 ts mutant growth, BacTiter-Glo, 38.5C 24 h
# test-name: restored growth of temperature-sensitive Burl-1 yeast – whole organism, S. cerevisiae, Burl-1 ts mutant, luminescence, counter-screen for SUMOylation pathway inhibitor project, dose response (AID 463199)
Activity calls are given as the source filed them.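 The calls were made as follows: active = AC50, the dose giving half-maximal effect, exceeds a fixed cutoff for a compound that rescues yeast growth under heat; inactive = the rest, inconclusive results apart.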
measured-parameter: AC50

Query :: Which AC50 is reported for this compound? COc1ccc(CNC(=O)c2cc(=O)c3cc(C)cc(C)c3o2)cc1
Result :: > 42 µM (inactive)

Query :: Which AC50 is reported for this compound? COc1cc(/C=N/n2cnnc2)ccc1OCc1ccccc1
Result :: > 42 µM (inactive)

Query :: Which AC50 is reported for this compound? CC1CCCC(C)N1/N=C/c1cc(Br)cc(Br)c1O (stereo not given)
Result :: > 42 µM (inactive)

# credit: PubChem BioAssay AID463199
